Conditions: in THF, 296.95 K
assay-endpoint: solubility (mole fraction)

Memo: O=c1c2ccccc2sc2ccc(Cl)cc12 , reported solubility (mole fraction): 0.00767

###

Conditions: in 2-butanone, 326.55 K
assay-endpoint: solubility (mole fraction)

For record O=c1c2ccccc2sc2ccc(Cl)cc12 the listed solubility (mole fraction) is 0.017

###

Conditions: in ethyl acetate, 324.65 K
assay-endpoint: solubility (mole fraction)
Field format: numeric only.

The recorded solubility (mole fraction) for O=c1c2ccccc2sc2ccc(Cl)cc12 is 0.0112

###

Details: in ethanol, 287.55 K
assay-endpoint: solubility (mole fraction)
In your answer, state the number alone without any accompanying words.

GET /value?item= O=c1c2ccccc2sc2ccc(Cl)cc12 &field=solubility (mole fraction) returns 0.000567

###

Conditions: in isopropanol, 325.65 K
assay-endpoint: solubility (mole fraction)
Provide a numeric answer; units are not to be included.

For O=c1c2ccccc2sc2ccc(Cl)cc12 the compound record lists solubility (mole fraction) as 0.00225

###

Conditions: in acetone, 313.35 K
assay-endpoint: solubility (mole fraction)
Write the value as a bare number.

Sure, the documented solubility (mole fraction) for O=c1c2ccccc2sc2ccc(Cl)cc12 is 0.00425

###

Details: in 1,2-dichloroethane, 311.35 K
assay-endpoint: solubility (mole fraction)
The response must contain the number and no unit.

Form field solubility (mole fraction), entry O=c1c2ccccc2sc2ccc(Cl)cc12 : 0.0195

###

Details: in toluene, 289.65 K
assay-endpoint: solubility (mole fraction)
API note: the answer field is a bare number with no unit suffix.

Input O=c1c2ccccc2sc2ccc(Cl)cc12 . Output solubility (mole fraction): 0.00915

###

Details: in isopropanol, 295.15 K
assay-endpoint: solubility (mole fraction)
Please respond with just the number, no unit label.

Sample O=c1c2ccccc2sc2ccc(Cl)cc12 ; solubility (mole fraction) observed: 0.000647

###

Conditions: in 1,2-dichloroethane, 291.55 K
assay-endpoint: solubility (mole fraction)
Answer with a number only.

Summary for this compound, O=c1c2ccccc2sc2ccc(Cl)cc12 : solubility (mole fraction) is 0.0108

###

Conditions: in THF, 291.85 K
assay-endpoint: solubility (mole fraction)
Respond with the number and no other words.

Per the records, this compound ( O=c1c2ccccc2sc2ccc(Cl)cc12 ) has solubility (mole fraction) equal to 0.00658

###

Conditions: in acetone, 319.15 K
assay-endpoint: solubility (mole fraction)
No unit in the answer, please; the number alone is enough.

Lab book: solubility (mole fraction) of O=c1c2ccccc2sc2ccc(Cl)cc12 noted as 0.00498

###

Conditions: in acetonitrile, 294.35 K
assay-endpoint: solubility (mole fraction)
Field format: numeric only.

Lookup result for O=c1c2ccccc2sc2ccc(Cl)cc12 ; measured solubility (mole fraction): 0.000768

###

Details: in 1,4-dioxane, 331.15 K
assay-endpoint: solubility (mole fraction)

// solubility (mole fraction) lookup, compound = O=c1c2ccccc2sc2ccc(Cl)cc12 , result: 0.0145

###

Settings: in toluene, 305.25 K
assay-endpoint: solubility (mole fraction)
Please state the value as a number alone, without comment.

Short answer for O=c1c2ccccc2sc2ccc(Cl)cc12 : solubility (mole fraction) was 0.0164

###

Conditions: in acetonitrile, 305.15 K
assay-endpoint: solubility (mole fraction)
The answer should be written as a number, with no unit following it.

compound O=c1c2ccccc2sc2ccc(Cl)cc12 , solubility (mole fraction) observed: 0.00114

Taken from BigSolDB 2.1.
